System: male Sprague-Dawley rats
assay: Cardiovascular Assay in anesthetized rats
Format: in vivo
assay-conditions: plasma at end of infusion, dose 10 mg/kg, rat
parameter: Drug (μg/mL SEM) (µg/mL)
Provide the reading as a plain figure in µg/mL.

Known results for molecules:
CO[C@@H](C)c1c(Nc2ccc([C@H](N(C)C(=O)C3CCN(C(C)=O)CC3)C(F)(F)F)cc2)cnc2sc(C)nc12; 8.92
CO[C@H](c1c(Nc2ccc([C@H](N(C)C(=O)C3CCS(=O)(=O)CC3)C(F)(F)F)cc2)cnc2sc(C)nc12)C(F)F; 8.34
CO[C@@H](C)c1c(Nc2ccc([C@H](N(C)C(=O)C3CCS(=O)(=O)CC3)C(F)(F)F)cc2)cnc2cc(Cl)nn12 [Comparative Example A, reference compound]; 5.15

Give Drug (μg/mL SEM) (male Sprague-Dawley rats) of the following molecule: `CO[C@@H](C)c1c(Nc2ccc([C@H](N(C)C(=O)C3CCS(=O)(=O)CC3)C(F)(F)F)cc2)cnc2sc(C)nc12` 9.36

Record `CO[C@@H](c1c(Nc2ccc([C@H](N(C)C(=O)C3CCN(C(C)=O)CC3)C(F)(F)F)cc2)cnc2sc(C)nc12)C(F)F` : what is its Drug (μg/mL SEM) with male Sprague-Dawley rats? 11.20
